Parameter: glycan array binding signal (z-score). Scope: all listed entries.
biological target: Neu5Ac(a2-3)Gal(b1-4)GlcNAc(b1-2)Man; assay: glycan array binding signal (z-score within array); higher = stronger binding; settings: glycan notation: IUPAC condensed, linker removed
This is one part of a sample in which the strongest signals are shown more often than they occur.
reportedMetric: glycan array binding signal (z-score)

| binder | measuredValue |
| --- | --- |
| Pbx1CASH domain (Cryptococcus neoformans) (protein) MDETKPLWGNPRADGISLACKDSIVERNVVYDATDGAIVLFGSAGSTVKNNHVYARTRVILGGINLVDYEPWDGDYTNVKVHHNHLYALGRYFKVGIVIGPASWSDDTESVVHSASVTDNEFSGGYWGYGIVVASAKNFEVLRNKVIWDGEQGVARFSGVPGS | 2.55 |
| Epa21 (Candida glabrata) (protein) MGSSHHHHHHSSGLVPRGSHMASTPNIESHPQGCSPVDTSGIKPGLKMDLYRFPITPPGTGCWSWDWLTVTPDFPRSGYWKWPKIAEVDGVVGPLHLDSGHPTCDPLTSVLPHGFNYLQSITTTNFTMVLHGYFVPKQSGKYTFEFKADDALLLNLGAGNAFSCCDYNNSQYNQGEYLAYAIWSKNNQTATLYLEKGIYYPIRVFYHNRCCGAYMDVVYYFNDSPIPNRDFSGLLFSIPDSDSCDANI | 2.68 |
| AidA (Burkholderia cenocepacia) (protein) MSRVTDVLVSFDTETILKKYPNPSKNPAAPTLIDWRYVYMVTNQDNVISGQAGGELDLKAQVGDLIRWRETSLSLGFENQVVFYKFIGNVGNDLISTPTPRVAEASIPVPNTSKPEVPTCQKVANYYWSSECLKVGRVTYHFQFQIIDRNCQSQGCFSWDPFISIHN | 1.58 |
